FYI, the data here is from ChEMBL document CHEMBL4627271.

# MEASUREMENT TARGET: UniProt:P32750
# Sequence (P32750 whole entry): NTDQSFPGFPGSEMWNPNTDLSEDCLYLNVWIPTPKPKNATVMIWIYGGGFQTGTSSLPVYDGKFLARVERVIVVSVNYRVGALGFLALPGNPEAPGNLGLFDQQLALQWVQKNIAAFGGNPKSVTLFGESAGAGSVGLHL
# PROTOCOL SUMMARY: Inhibition of dog serum BChE using butrylthiocholine iodide as substrate by spectrophotometry based Ellman's method
// returns Condition not met unless IC50 is strictly below 10 µM, in which case Condition met

SMILES STR: COc1ccc(CC(=O)Nc2ncc(-c3ccc(OCCCN4CCCC4)cc3)s2)cc1
ASSIGNED CLASS: Condition met
//
SMILES STR: COc1ccc(CC(=O)Nc2ncc(-c3ccc(OCCCCN4CCN(Cc5ccccc5)CC4)cc3)s2)cc1OC
ASSIGNED CLASS: Condition not met
//
SMILES STR: COc1ccc(C(=O)Nc2ncc(-c3ccc(OCCCN4CCCC4)cc3)s2)cc1OC
ASSIGNED CLASS: Condition met
//
SMILES STR: COc1cc(CC(=O)Nc2ncc(-c3ccc(OCCCN4CCCC4)cc3)s2)cc(OC)c1OC
ASSIGNED CLASS: Condition not met
//
SMILES STR: COc1ccc(CC(=O)Nc2ncc(-c3ccc(OCCCCNC4CCN(Cc5ccccc5)CC4)cc3)s2)cc1OC
ASSIGNED CLASS: Condition met
//
SMILES STR: COc1ccc(CC(=O)Nc2ncc(-c3ccc(OCCN4CCCC4)cc3)s2)cc1OC
ASSIGNED CLASS: Condition not met
//
SMILES STR: CCN(C)C(=O)Oc1cccc([C@H](C)N(C)C)c1
ASSIGNED CLASS: Condition met
//
SMILES STR: COc1ccc(CC(=O)Nc2ncc(-c3ccc(OCCCCSc4ccncc4)cc3)s2)cc1OC
ASSIGNED CLASS: Condition not met

----------
What follows is a record of IC50 for Acetylcholinesterase (Electrophorus electricus).
TEST READOUT: IC50 (µM)

SMILES STR: COc1ccc(CC(=O)Nc2ncc(-c3ccc(OCCCCN4CCCCC4)cc3)s2)cc1OC
MEASUREMENT TARGET: Acetylcholinesterase (Electrophorus electricus)
Sequence (O42275 whole entry): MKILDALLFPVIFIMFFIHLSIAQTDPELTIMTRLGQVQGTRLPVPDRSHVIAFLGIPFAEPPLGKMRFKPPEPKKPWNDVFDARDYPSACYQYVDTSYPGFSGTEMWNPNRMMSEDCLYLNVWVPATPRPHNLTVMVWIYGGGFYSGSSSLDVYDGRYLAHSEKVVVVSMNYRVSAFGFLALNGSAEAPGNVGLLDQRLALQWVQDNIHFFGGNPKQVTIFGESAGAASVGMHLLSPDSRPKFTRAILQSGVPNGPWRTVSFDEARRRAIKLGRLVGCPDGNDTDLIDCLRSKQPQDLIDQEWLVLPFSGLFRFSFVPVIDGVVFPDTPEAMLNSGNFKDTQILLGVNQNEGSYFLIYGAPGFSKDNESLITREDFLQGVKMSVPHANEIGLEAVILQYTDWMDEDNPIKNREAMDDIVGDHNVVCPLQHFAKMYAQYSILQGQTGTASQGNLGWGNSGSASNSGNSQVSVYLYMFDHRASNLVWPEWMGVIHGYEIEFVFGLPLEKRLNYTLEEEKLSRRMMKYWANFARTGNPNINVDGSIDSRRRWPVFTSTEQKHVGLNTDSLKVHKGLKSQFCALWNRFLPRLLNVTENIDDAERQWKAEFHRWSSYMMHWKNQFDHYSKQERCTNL
VALUE OBSERVED: 0.95

SMILES STR: COc1ccc(CC(=O)Nc2ncc(-c3ccc(OCCCCN4CCN(Cc5ccccc5)CC4)cc3)s2)cc1OC
MEASUREMENT TARGET: Acetylcholinesterase (Electrophorus electricus)
VALUE OBSERVED: 5.75

SMILES STR: COc1ccc(CC(=O)Nc2ncc(-c3ccc(OCCCN4CCCC4)cc3)s2)cc1
MEASUREMENT TARGET: Acetylcholinesterase (Electrophorus electricus)
VALUE OBSERVED: 37.3

SMILES STR: COc1ccc(CC(=O)Nc2ncc(-c3ccc(OCCCCSc4ccncc4)cc3)s2)cc1OC
MEASUREMENT TARGET: Acetylcholinesterase (Electrophorus electricus)
VALUE OBSERVED: 5.5

SMILES STR: COc1ccc(C(=O)Nc2ncc(-c3ccc(OCCCN4CCCC4)cc3)s2)cc1OC
MEASUREMENT TARGET: Acetylcholinesterase (Electrophorus electricus)
VALUE OBSERVED: 39.3

SMILES STR: COc1ccc(CC(=O)Nc2ncc(-c3ccc(OCCN4CCCC4)cc3)s2)cc1OC
MEASUREMENT TARGET: Acetylcholinesterase (Electrophorus electricus)
VALUE OBSERVED: 6.31

SMILES STR: COc1ccc(CC(=O)Nc2ncc(-c3ccc(OCCCCCN4CCCC4)cc3)s2)cc1OC
MEASUREMENT TARGET: Acetylcholinesterase (Electrophorus electricus)
VALUE OBSERVED: 3.34

SMILES STR: COc1ccc(CC(=O)Nc2ncc(-c3ccc(OCCCCNC4CCN(Cc5ccccc5)CC4)cc3)s2)cc1OC
MEASUREMENT TARGET: Acetylcholinesterase (Electrophorus electricus)
VALUE OBSERVED: 4.24

SMILES STR: COc1ccc(CC(=O)Nc2ncc(-c3ccc(OCCCN4CCCC4)cc3)s2)cc1OC
MEASUREMENT TARGET: Acetylcholinesterase (Electrophorus electricus)
VALUE OBSERVED: 6.51

SMILES STR: COc1cc(CC(=O)Nc2ncc(-c3ccc(OCCCN4CCCC4)cc3)s2)cc(OC)c1OC
MEASUREMENT TARGET: Acetylcholinesterase (Electrophorus electricus)
VALUE OBSERVED: 7.84

SMILES STR: COc1ccc(CC(=O)Nc2ncc(-c3ccc(OCCCCN4CCCC4)cc3)s2)cc1OC
MEASUREMENT TARGET: Acetylcholinesterase (Electrophorus electricus)
VALUE OBSERVED: 0.66

----------
# MEASUREMENT TARGET: Acetylcholinesterase (Homo sapiens, UniProt P22303)
# Sequence (P22303 whole entry): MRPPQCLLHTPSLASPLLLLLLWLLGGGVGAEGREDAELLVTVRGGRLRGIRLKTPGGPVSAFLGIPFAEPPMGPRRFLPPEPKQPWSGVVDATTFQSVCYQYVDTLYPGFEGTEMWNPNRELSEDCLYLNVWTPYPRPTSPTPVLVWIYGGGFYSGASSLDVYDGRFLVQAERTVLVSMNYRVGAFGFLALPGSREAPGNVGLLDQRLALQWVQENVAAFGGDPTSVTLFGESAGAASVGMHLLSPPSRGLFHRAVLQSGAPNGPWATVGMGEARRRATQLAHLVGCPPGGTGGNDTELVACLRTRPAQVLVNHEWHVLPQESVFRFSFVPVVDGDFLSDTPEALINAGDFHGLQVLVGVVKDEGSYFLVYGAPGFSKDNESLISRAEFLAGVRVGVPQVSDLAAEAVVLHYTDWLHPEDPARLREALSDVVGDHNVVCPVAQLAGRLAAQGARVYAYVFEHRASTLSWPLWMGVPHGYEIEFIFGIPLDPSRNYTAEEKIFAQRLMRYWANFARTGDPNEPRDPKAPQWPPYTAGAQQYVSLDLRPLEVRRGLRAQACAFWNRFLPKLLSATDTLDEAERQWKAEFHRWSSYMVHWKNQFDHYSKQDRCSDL
# PROTOCOL SUMMARY: Inhibition of AChE (unknown origin)
pIC50: −log10 of the molar value.
TEST READOUT: pIC50

SMILES STR: COc1ccc(-c2csc(NC(=O)CCN3CCCC3)n2)cc1
TEST READOUT: pIC50
VALUE OBSERVED: 6.29
